tested on: 7G8; assay: qHTS profiling for inhibitors of Plasmodium falciparum proliferation (AID 504749); note: nearly all actives have a fitted effect of over 60% in size; details: P. falciparum in erythrocytes, SYBR Green DNA, 72 h; series mostly up to 28.7 µM
Results filed as inconclusive are left out. Calls of active or inactive are those of the source. Calls come from the whole dose curve; as a rule, active = well fitted inhibition curve with a large enough effect; inconclusive = small, poorly fitted or top-dose-only effect; inactive = flat fitted curve, though single readings scatter.
Give one outcome, nothing more. List: t (active), f (inactive)

Some solved entries appear below for comparison.
{"compound": "C=NC(C(=O)NC1C(=O)N2C1SC(C)(C)C2C(=O)O)c1ccccc1 (stereo unspecified)", "group-label": "f"}
{"compound": "COc1ccc(S(=O)(=O)N2c3ccc(Cl)cc3[C@](O)(c3ccccc3Cl)[C@@H]2C(=O)N2CCC[C@H]2C(N)=O)cc1OC", "group-label": "t"}
{"compound": "CC[C@H](C)[C@H]1O[C@]2(CC[C@@H]1C)C[C@@H]1C[C@@H](C/C=C(\\C)[C@H](O[C@@H]3C[C@H](OC)[C@H](O[C@@H]4C[C@H](OC)[C@@H](O)[C@H](C)O4)[C@H](C)O3)[C@@H](C)/C=C/C=C3\\CO[C@@H]4[C@H](O)C(C)=C[C@@H](C(=O)O1)[C@]34O)O2", "group-label": "t"}
{"compound": "C=C1[C@@H]2CC[C@H](C2)C1(C)C", "group-label": "f"}
{"compound": "C=C(NCc1ccccc1)c1ccccc1O", "group-label": "f"}

Pending compound:
Input: Tell me the assay call for O=C1CC[C@H](C(=O)N[C@@H]2C[C@H]2c2ccccc2)N1 please.
Output: f

====

Reported activity change, negative = inhibition values for a set of molecules
assay: AP1 Signaling Pathway (AID 357); conditions: ME-180 AP-1-bla reporter, EGF-induced, beta-lactamase ratio, 5 h; at 17.2 µM (top of the series) unless noted;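 note: ME-180 reporter cells stimulated with EGF at its EC50 level; % is set by controls: 0 for no effect and ±100 for the full control effect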
Results filed as inconclusive are left out. Calls of active or inactive are those of the source. Calls come from the whole dose curve; as a rule, active = well fitted curve in either direction with a large enough effect (not every such curve was filed as active); inconclusive = small, poorly fitted or top-dose-only effect, or another doubt; inactive = flat fitted curve, though single readings scatter.

Below, each entry is followed by its recorded activity change, negative = inhibition result.
{"structure-smiles-string": "Cc1cc(Nc2ccc3ccccc3c2)n2ncnc2n1", "val": "16.7% (inactive)"}
{"structure-smiles-string": "CCOc1cccc(-c2nnc3sc(-c4cc(OC)c(OC)c(OC)c4)nn23)c1", "val": "3.58% (inactive)"}
{"structure-smiles-string": "Cc1ccc(-c2nnc(OCCN3CCOCC3)c3ccccc23)cc1", "val": "-9.96% (inactive)"}
{"structure-smiles-string": "Cn1c(=O)c2c(nc(NCc3ccco3)n2Cc2ccccc2Cl)n(C)c1=O", "val": "16.7% (inactive)"}

Let us examine a further case.
Input: What value of activity change, negative = inhibition has been recorded for this entry: Cc1oc2nc(SCCCC(=O)NCCCO)nc(N)c2c1C
Output: -11.8% (inactive)

====

experiment: Stat Signaling Pathway (AID 446); details: ME-180 (cervical carcinoma) SIE beta-lactamase reporter, IL-6 stimulated, 5 h; at 17.2 µM (top of the series) unless noted;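 note: ME-180 cervical cancer cells given 40 pM IL-6 alongside compound; SIE-controlled beta-lactamase reporter measured as 460/530 nm FRET emission ratio; % is set by controls: 0 for no effect and ±100 for the full control effect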
Inconclusive results are not listed. Activity calls are given as the source filed them. Calls follow the shape of the dose curve; as a rule, active = well fitted curve in either direction with a large enough effect (not every such curve was filed as active); inconclusive = small, poorly fitted or top-dose-only effect, or another doubt; inactive = flat fitted curve, though single readings scatter.
metric: activity, negative = inhibition

Below, each entry is followed by its recorded activity, negative = inhibition result.
{"compound": "CCN1CCC[C@@H]1CNC(=O)c1c(OC)ccc(I)c1O", "val": "-4.45% [at 38 µM] (inactive)"}
{"compound": "CCOC(=O)CSc1nc2ccccc2c(=O)n1C", "val": "1.58% (inactive)"}
{"compound": "O=C(Nc1nc(NC(=O)c2ccco2)n(-c2ccccc2)n1)c1ccccc1", "val": "-22.6% (inactive)"}
{"compound": "Fc1ccc2[nH]c3c(N4CCN(C5CCCCC5)CC4)ncnc3c2c1", "val": "16.1% (inactive)"}
{"compound": "CSc1nnc2n(C3CCCCC3)c(=O)c3c4c(sc3n12)CCCC4", "val": "14.1% (inactive)"}
{"compound": "CC1(C)Cc2c(c(-c3ccccc3)[nH]c(=O)c2C#N)CS1", "val": "-8.62% (inactive)"}
{"compound": "O=S(CCc1ccncc1)Cc1ccccc1 (stereo unspecified)", "val": "2.34% (inactive)"}
{"compound": "COc1cccc(CNc2ncc(Br)cc2Br)c1O", "val": "-21.8% (inactive)"}

Input: What value of activity, negative = inhibition has been recorded for this entry: CCOc1cccc(N2C(=O)CC(N(CCc3ccc(OC)c(OC)c3)C(=O)CC)C2=O)c1 (stereo unspecified)
Output: 3.67% (inactive)

Input: Could you do the same for O=C(c1ccccc1F)N1CCC(N2CCCCCC2)CC1 , please?
Output: 2.78% (inactive)

Input: Could you do the same for CC1CCc2cc(F)cc3c(O)c(C(=O)Nc4cnccn4)c(=O)n1c23 (stereo unspecified) , please?
Output: 11.1% (inactive)

Input: Could you do the same for C[C@H](O)[C@@H]1C(=O)N2C(C(=O)O)=C(SCCN=CN)C[C@@H]12 , please?
Output: -2.21% (inactive)

Input: Could you do the same for Cc1cccc(C)c1OCC(O)CNS(=O)(=O)c1ccccc1C(=O)N1CCOCC1 (stereo unspecified) , please?
Output: 3.91% (inactive)

Input: Could you do the same for CC(=O)c1cccc(N=C2NC(=O)C(CO)(CO)S2)c1 , please?
Output: 4.42% (inactive)

Input: Could you do the same for COc1ccc(C2CC(c3ccccc3)Nc3nc(N)nn32)cc1 (stereo unspecified) , please?
Output: 1.39% (inactive)

Input: Could you do the same for CSC1=C(C#N)C(C)CC(=O)N1 (stereo unspecified) , please?
Output: 3.87% (inactive)

Input: Could you do the same for Cn1ncc(N=Cc2c(O)ccc3ccccc23)c1C(=O)N1CCOCC1 , please?
Output: -16.5% (inactive)

Input: Could you do the same for CC1CN(C2CCN(S(=O)(=O)c3ccccc3)CC2)CC(C)O1 (stereo unspecified) , please?
Output: 2.46% (inactive)

====

assay: qHTS profiling for inhibitors of Plasmodium falciparum proliferation (AID 504749); note: nearly all actives have a fitted effect of over 60% in size; note: potency is the fitted concentration of half-maximal effect; conditions: P. falciparum in erythrocytes, SYBR Green DNA, 72 h; parasite line A
Inconclusive results are not listed. Calls of active or inactive are those of the source. Calls follow the shape of the dose curve; as a rule, active = well fitted inhibition curve with a large enough effect; inconclusive = small, poorly fitted or top-dose-only effect; inactive = flat fitted curve, though single readings scatter.
Reported Potency values for a set of compounds

{"compound": "COC1CC2CCC(C)[C@](O)(O2)C(=O)C(=O)N2CCCCC2C(=O)OC(C(C)CC2CCC(O)C(OC)C2)CC(=O)C(C)/C=C(/C)C(O)C(OC)C(=O)C(C)CC(C)C=CC=C/C=C\\1C (stereo partly drawn)", "Potency": "3.55 µM (active)"}
{"compound": "Nc1nc2[nH]cc(CCc3ccc(C(=O)NC(CCC(=O)O)C(=O)O)cc3)c2c(=O)[nH]1 (stereo not drawn)", "Potency": "0.126 µM (active)"}

Input: What value of Potency has been recorded for this entry: C[C@]12CC[C@@H]3c4ccc(O)cc4C[C@@H](CCCCCCCCCS(=O)CCCC(F)(F)C(F)(F)F)C3[C@@H]1CC[C@@H]2O (stereo partly drawn)
Output: 11.2 µM (active)

====

biological target: Cytochrome P450 1A2 (Homo sapiens); experiment: p450-cyp1a2 (AID 410); conditions: recombinant CYP1A2, luciferin-ME demethylation, luminescence; series mostly up to 57 µM
Inconclusive results are not listed. Active and inactive are the calls of the source. Calls follow the shape of the full dose curve.
Give one outcome, nothing more. List: 1.0 for active, 0.0 for inactive

{"compound": "O=c1c(O)c(-c2cccc(O)c2)oc2ccccc12", "group-label": 1.0}
{"compound": "Cc1ccc2oc(-c3ccccc3)c(O)c(=O)c2c1", "group-label": 1.0}
{"compound": "CC(C)C[C@@H](CC(=O)N[C@@H](CCCN)CC(=O)N[C@@H]1CCNC[C@H]1C(=O)N[C@H](CC(=O)N[C@@H](CCC(=O)O)CC(=O)O)Cc1c[nH]c2ccccc12)NC(=O)[C@@H]1CNCC[C@H]1N", "group-label": 0.0}
{"compound": "C[C@@H](C(=O)O)[C@H]1C[C@]1(C)[C@H](NC(=O)OCc1ccccc1)c1ccccc1", "group-label": 0.0}
{"compound": "COc1cccc2c1C(=O)c1c(O)c3c(c(O)c1C2=O)C[C@](O)(C(C)=O)C[C@H]3O[C@@H]1C[C@H](N)[C@H](O)[C@H](C)O1", "group-label": 0.0}
{"compound": "C[C@@]1(C(NC(=O)c2ccccc2)c2ccc(-c3ccccc3)cc2)C[C@H]1C1CCCCC1 (stereo not given in full)", "group-label": 0.0}
{"compound": "c1ccc(-c2c3ccccc3nc3[nH]c4ccccc4c23)cc1", "group-label": 1.0}
{"compound": "C[C@H](O)[C@H](O)[C@@H](O)c1cnc2nc(N)[nH]c(=O)c2n1", "group-label": 0.0}

Input: Tell me the assay call for CC(C)[C@@H](CC(=O)N[C@@H]1CCNC[C@H]1C(=O)N[C@H](CC(=O)N[C@@H](CCC(=O)O)CC(=O)O)Cc1c[nH]c2ccccc12)NC(=O)C[C@H](Cc1ccccc1)NC(=O)[C@@H]1CCCC[C@H]1N please.
Output: 1.0

Input: Could you do the same for Cn1ccc(O)c(C#N)c1=O , please?
Output: 0.0

Input: Could you do the same for CCCC[C@@H]1C[C@H]1C(NC(=O)c1ccc(-c2ccccc2)cc1)c1ccc(-c2ccccc2)cc1 (stereo not given in full) , please?
Output: 0.0

Input: Could you do the same for COC(=O)[C@@H]1C[C@H]1[C@@H](NC(=O)c1ccccc1)c1ccccc1 , please?
Output: 1.0

Input: Could you do the same for O=C1C=CC2=C3c4cc(O)c(O)cc4C[C@@]3(O)COC2=C1O , please?
Output: 1.0

Input: Could you do the same for CC(C)C[C@@H](CC(=O)N[C@@H](CCC(=O)O)CC(=O)O)NC(=O)[C@@H]1CNCC[C@H]1NC(=O)C[C@@H](NC(=O)C[C@H](CO)NC(=O)[C@@H]1CNCC[C@H]1N)C(C)C , please?
Output: 0.0

Input: Could you do the same for CC(C)C[C@@H](CC(=O)N[C@H](CC(=O)N[C@@H]1CCCC[C@H]1C(=O)N[C@H](CC(=O)N[C@@H](CCC(=O)O)CC(=O)O)Cc1c[nH]c2ccccc12)C(C)C)NC(=O)[C@@H]1CNCC[C@H]1N , please?
Output: 0.0

Input: Could you do the same for CC(C)c1cccc2nc3c(c(C(C)(C)C)c12)Cn1c-3cccc1=O , please?
Output: 1.0

Input: Could you do the same for COC(=O)[C@@]1(Cc2ccc(F)cc2)[C@H]2c3cc(C(=O)N4CCCC4)n(CCF)c3C[C@H]2CN1C(=O)c1ccccc1 , please?
Output: 1.0

Input: Could you do the same for O=c1ccn([C@H]2O[C@H](CO)[C@@H](O)[C@@H]2O)c(=O)[nH]1 , please?
Output: 0.0

Input: Could you do the same for C=C1CC[C@@H](O)C/C1=C/C=C1\CCC[C@]2(C)[C@@H]1CC[C@H]2[C@@H](C)CCCC(C)C , please?
Output: 0.0

Input: Could you do the same for CCC#CCOCC(=O)Nc1ccccc1 , please?
Output: 1.0

Cited source for all entries: PubChem BioAssay (NCATS)
